Below, each entry is listed with its recorded bioavailability.
# measurement-protocol: Oral bioavailability in monkey at 1 mg/kg, iv and 3 mg/kg, po
# Type: ADME, organism-based, Macaca mulatta
# assay-context: rhesus monkey, in vivo
Only the number, expressed in %, is required.

{"structure-string": "CN1C(=O)NC[C@H]1C(=O)NCc1ccc(Cl)cc1Cl", "bioavailability / %": 99}

For the next question, use this compound.
Kindly note the recorded bioavailability for CN1C(=O)CC[C@H]1C(=O)NCc1cccc(C(F)(F)F)c1Cl , which is 57

====

Below, each entry is listed with its recorded Vd.
# measurement-protocol: Volume of distribution at steady state in dog at 1 mg/kg, iv and 3 mg/kg, po
# Type: ADME, organism-based, Canis lupus familiaris
# assay-context: in vivo, read-out: Vdss
Please answer in the form of a number followed by its unit of measurement.

{"structure-string": "CN1C(=O)NC[C@H]1C(=O)NCc1ccc(Cl)cc1Cl", "endpoint": "Vd", "reported-measurement": "0.8 L/kg"}

Kindly note the recorded Vd for CN1C(=O)CC[C@H]1C(=O)NCc1cccc(C(F)(F)F)c1Cl , which is 0.9 L/kg

====

# System: MDCK
# measurement-protocol: Efflux ratio of permeability from apical to basolateral side over basolateral to apical side in MDCK cells expressing MDR
# Assay type: ADME, cell-based, Canis lupus familiaris
# assay-context: dog
endpoint: Ratio

Example cases with answers are listed next.
{"structure-string": "Cc1ncccc1N1C[C@@H](C(=O)NCc2cccc(C(F)(F)F)c2Cl)N(C)C1=O", "Ratio": 4.4}
{"structure-string": "Cc1ncccc1N1C[C@@H](C(=O)NCc2ccc(Cl)cc2Cl)N(C)C1=O", "Ratio": 4.9}
{"structure-string": "CN1C(=O)N(CCN2CCOCC2)C[C@H]1C(=O)NCc1cccc(C(F)(F)F)c1Cl", "Ratio": 11.9}
{"structure-string": "CN1C(=O)NC[C@H]1C(=O)NCc1cccc(C(F)(F)F)c1Cl", "Ratio": 2.1}
{"structure-string": "CN1C(=O)N(c2nccn2C)C[C@H]1C(=O)NCc1cccc(C(F)(F)F)c1Cl", "Ratio": 5.3}

Kindly note the recorded Ratio for Cc1cc(N2C[C@@H](C(=O)NCc3cccc(C(F)(F)F)c3Cl)N(C)C2=O)ccn1 , which is 1.9

Kindly note the recorded Ratio for CN1CCC(N2C[C@@H](C(=O)NCc3cccc(C(F)(F)F)c3Cl)N(C)C2=O)CC1 , which is 3.2

====

Below, each entry is listed with its recorded bioavailability.
# measurement-protocol: Oral bioavailability in dog at 1 mg/kg, iv and 3 mg/kg, po
# Format: ADME, organism-based, Canis lupus familiaris
# assay-context: in vivo
Please answer in the form of a number followed by its unit of measurement.

{"structure-string": "CN1C(=O)CC[C@H]1C(=O)NCc1cccc(C(F)(F)F)c1Cl", "bioavailability": "69%"}

Kindly note the recorded bioavailability for CN1C(=O)NC[C@H]1C(=O)NCc1ccc(Cl)cc1Cl , which is 100%

====

Below, each entry is listed with its recorded half-life.
# measurement-protocol: Half life in rat blood at 1 mg/kg, iv
# Format: ADME, organism-based
# Set-up: dose 1 mg/kg, route intravenous
Only the number, expressed in min, is required.

Example cases with answers are listed next.
{"structure-string": "CN1C[C@@H](C(=O)NCc2cccc(Cl)c2Cl)N(C)C1=O", "units-of-measure": "min", "reported-measurement": 24}
{"structure-string": "CN1C[C@@H](C(=O)NCc2ccc(Cl)cc2Cl)N(C)C1=O", "units-of-measure": "min", "reported-measurement": 36}

Kindly note the recorded half-life for CN1C(=O)NC[C@H]1C(=O)NCc1ccc(Cl)cc1Cl , which is 168
